Measured No. Pos. CRANEGLAS by item
Test system: Geobacillus stearothermophilus spores
methodDescription: Hydrogen peroxide neutralizers in BI recovery medium, spore outgrowth after STERRAD 100S cycle
Format: cell-based
testContext: additive 1 g/l; CRANEGLAS fiberglass carrier; 7 days

{"structure": "CSCC[C@H](N)C(=O)O", "No. Pos. CRANEGLAS": 4}
{"structure": "CCSCC[C@@H](N)C(=O)O", "No. Pos. CRANEGLAS": 4}
{"structure": "O=C(O)CCSCCC(=O)O", "No. Pos. CRANEGLAS": 1}
{"structure": "N[C@@H](CS)C(=O)O", "No. Pos. CRANEGLAS": 4}
{"structure": "CSC[C@H](N)C(=O)O", "No. Pos. CRANEGLAS": 4}
{"structure": "N[C@@H](CSCc1ccccc1)C(=O)O", "No. Pos. CRANEGLAS": 4}
{"structure": "O=C1O[C@H]([C@H](O)CO)C(O)=C1O", "No. Pos. CRANEGLAS": 0}

---

System: Geobacillus stearothermophilus spores
methodDescription: Hydrogen peroxide neutralizers in BI recovery medium, spore outgrowth after STERRAD 100S cycle
Type: cell-based
testContext: additive 8 g/l; steam sterilized and inoculated with less than 100 spores, no H2O2
experimentalReadout: Positive Control

{"molecule": "CCSCC[C@@H](N)C(=O)O [D-ethionine]", "dataValue": "Pos"}
{"molecule": "CC(=O)C(=O)[O-].[Na+] [Sodium pyruvate, sodium pyruvate]", "dataValue": "Pos"}
{"molecule": "N[C@@H](CS)C(=O)O [L-cysteine]", "dataValue": "Pos"}
{"molecule": "O=C(O)CCSCCC(=O)O [Thiodiproprionic acid, thiodiproprionic acid]", "dataValue": "Pos"}
{"molecule": "O=C1O[C@H]([C@H](O)CO)C(O)=C1O [Isoascorbic acid]", "dataValue": "Pos*"}
{"molecule": "CSC[C@H](N)C(=O)O [S-methyl-cysteine]", "dataValue": "Pos*"}
{"molecule": "CSCC[C@H](N)C(=O)O [Methionine]", "dataValue": "Pos"}
